- target_or_system: OXSR1 (Homo sapiens)
- Sequence (O95747 whole entry): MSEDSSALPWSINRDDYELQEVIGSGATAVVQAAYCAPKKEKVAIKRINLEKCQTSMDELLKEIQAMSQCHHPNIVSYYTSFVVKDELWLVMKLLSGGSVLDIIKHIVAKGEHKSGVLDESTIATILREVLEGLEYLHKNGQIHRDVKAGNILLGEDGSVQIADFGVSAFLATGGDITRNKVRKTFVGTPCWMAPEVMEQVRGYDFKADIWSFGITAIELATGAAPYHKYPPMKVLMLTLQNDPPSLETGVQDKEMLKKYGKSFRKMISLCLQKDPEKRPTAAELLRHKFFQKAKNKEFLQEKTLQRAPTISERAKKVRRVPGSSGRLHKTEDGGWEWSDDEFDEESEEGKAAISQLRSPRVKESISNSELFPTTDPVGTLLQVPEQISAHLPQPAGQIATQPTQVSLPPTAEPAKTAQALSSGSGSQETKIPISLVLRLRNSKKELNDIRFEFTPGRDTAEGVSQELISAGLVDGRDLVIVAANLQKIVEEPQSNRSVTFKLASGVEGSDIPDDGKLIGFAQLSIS
- experimental_protocol: biochemical
- Design: species or system HEK293/K-562/placenta mixed human extract; Kinobeads chemoproteomic competition binding, quantified by TMT LC-MS/MS, dose response up to 20 uM
pIC50: −log10 of the molar value.
readout_label: pIC50

> print(dat)
                                   molecule      target.or.system  meas.value
1  COc1nc(N[C@H]2CC[C@H](NS(=O)(=O)CC(C)C)CC2)nc2[nH]nc(N3CCOC[C@H]3C)c12 [compound 39]  OXSR1 (Homo sapiens)      ≤ 4.70

###

- target_or_system: AURKC (Homo sapiens)
- Sequence (Q9UQB9 whole entry): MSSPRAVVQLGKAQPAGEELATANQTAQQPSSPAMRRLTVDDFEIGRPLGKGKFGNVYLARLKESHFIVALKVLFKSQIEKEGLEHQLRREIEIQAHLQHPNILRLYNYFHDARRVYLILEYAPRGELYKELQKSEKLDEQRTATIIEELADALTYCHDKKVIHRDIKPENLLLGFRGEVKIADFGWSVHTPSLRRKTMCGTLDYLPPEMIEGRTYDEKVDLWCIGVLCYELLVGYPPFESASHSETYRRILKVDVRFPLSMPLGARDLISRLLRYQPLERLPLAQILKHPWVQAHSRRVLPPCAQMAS
pIC50: −log10 of the molar value.
readout_label: pIC50

> print(dat)
                               smiles.entry  meas.value
1  COc1ccccc1-c1n[nH]c2nc(N[C@H]3CC[C@H](NS(=O)(=O)CCC(F)(F)F)CC3)nc(OC)c12      ≤ 4.70
